target: T1, TAKLDEESILKQ-Biotin; assay: Octet (BLI), fixed reagent concentration;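 also: octet binding of candidate PTM-specific affinity reagents, each at one fixed concentration, to biotinylated phospho-Thr or phospho-Ser peptides, with unmodified biotinylated peptides serving as controls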
T1 peptide: TAKLDEESILKQ-{Biotin′}
Primed or numbered codes have the meaning given here. Where no end group is shown, it is not given here. Biotin′ = not defined here
endpoint: Octet binding assay response
Give only the figure.

Incoming: Please give measured Octet binding assay response of the following entry: PM13 (Saccharomyces cerevisiae/FHA1) (other) MENITQPTQQSTQATQRFLIEKFSQEQIGENIVCRVICTTGQIPIRDLSADISQVLKEKRSIKKVWTFGRNPACDYHLGNISRLSNKHFQILLGEDGNLLLNDISTNGTWLNGQKVEKNSNQLLSQGDEITVGVGVESDILSLVIFINDKFKQCLEQNKVDRIRSNLKNTSKIASPGLTSSTASSMVANKTGIFKDFSIIDEVVGQGAFATVKKAIERTTGKTFAVKIISKRKVIGNMDGVTRELEVLQKLNHPRIVRLKGFYEDTESYYMVMEFVSGG
Outgoing: 0.3
